Tested on: human Factor 7 mRNA
MEASUREMENT PROTOCOL: Dose-dependent antisense inhibition of human Factor 7 in HepB3 cells, lipofectin
Format: cell-based
TEST PARAMETERS: 25 nM, HepB3 cells, approx. 16 hours (Table 14)
Strand notation (5' to 3'): a small letter for the sugar, then the base; units joined by * are phosphorothioate-linked, units joined directly phosphodiester-linked; [ ] holds rarer units or linkages, { } end groups; capitals alone tell only the bases. e = 2'-O-(2-methoxyethyl) (MOE); [5mC] = 5-methylcytosine; d = 2'-deoxy (DNA)
READOUT TYPE: percent inhibition of Factor 7 mRNA, relative to untreated control cells (%)

SUBSTANCE	RESULT
422096 (antisense eA*eG*eA*e[5mC]*eA*dA*dT*dG*dG*dT*d[5mC]*dA*dG*dG*dG*e[5mC]*eT*eG*eG*eT) [compound 422096]	60
422183 (antisense eG*e[5mC]*eG*d[5mC]*d[5mC]*dA*d[5mC]*d[5mC]*d[5mC]*dG*d[5mC]*d[5mC]*dG*dG*d[5mC]*dT*d[5mC]*eT*eG*e[5mC]) [compound 422183]	78
422295 (antisense e[5mC]*eG*dA*dG*dT*dT*d[5mC]*dT*dG*d[5mC]*dA*dG*dG*dA*dG*e[5mC]*eG*eG*e[5mC]*e[5mC]) [compound 422295]	64
422252 (antisense e[5mC]*eG*d[5mC]*d[5mC]*dG*dG*d[5mC]*dT*d[5mC]*dT*dG*d[5mC]*dT*d[5mC]*dA*eT*e[5mC]*e[5mC]*e[5mC]*e[5mC]) [compound 422252]	61
422296 (antisense e[5mC]*e[5mC]*dG*dA*dG*dT*dT*d[5mC]*dT*dG*d[5mC]*dA*dG*dG*dA*eG*e[5mC]*eG*eG*e[5mC]) [compound 422296]	67

====

System: human Factor 7 mRNA
MEASUREMENT PROTOCOL: Dose-dependent antisense inhibition of human Factor 7 in HepB3 cells, electroporation
Assay type: cell-based
TEST PARAMETERS: 3.125 μM, approx. 16 hours (Table 16, Example 8 confirmation)
Strand notation (5' to 3'): a small letter for the sugar, then the base; units joined by * are phosphorothioate-linked, units joined directly phosphodiester-linked; [ ] holds rarer units or linkages, { } end groups; capitals alone tell only the bases. e = 2'-O-(2-methoxyethyl) (MOE); [5mC] = 5-methylcytosine; d = 2'-deoxy (DNA)
Measured percent inhibition of Factor 7 mRNA, relative to untreated control cells of individual entries
READOUT TYPE: percent inhibition of Factor 7 mRNA, relative to untreated control cells

SUBSTANCE	ASSAY TARGET	RESULT
422292 (antisense eG*eT*dT*d[5mC]*dT*dG*d[5mC]*dA*dG*dG*dA*dG*d[5mC]*dG*dG*e[5mC]*e[5mC]*eT*eA*eA) [compound 422292]	human Factor 7 mRNA	31%
422150 (antisense eG*e[5mC]*eA*dT*dG*dG*dT*dG*dA*dT*dG*d[5mC]*dT*dT*d[5mC]*dT*dG*eA*eA*eT) [compound 422150]	human Factor 7 mRNA	0%
422229 (antisense eA*eT*dG*d[5mC]*dA*dT*dG*dG*dT*dG*dA*dT*dG*d[5mC]*dT*eT*e[5mC]*eT*eG*eA) [compound 422229]	human Factor 7 mRNA	30%
422086 (antisense eT*eG*e[5mC]*eA*eT*dG*dG*dT*dG*dA*dT*dG*d[5mC]*dT*dT*e[5mC]*eT*eG*eA*eA) [compound 422086]	human Factor 7 mRNA	25%
422087 (antisense e[5mC]*eA*eT*eG*e[5mC]*dA*dT*dG*dG*dT*dG*dA*dT*dG*d[5mC]*eT*eT*e[5mC]*eT*eG) [compound 422087]	human Factor 7 mRNA	19%
422130 (antisense eG*e[5mC]*e[5mC]*eT*eG*dA*dG*dG*d[5mC]*d[5mC]*dA*dG*d[5mC]*dA*dG*eA*eT*e[5mC]*eA*e[5mC]) [compound 422130]	human Factor 7 mRNA	14%

Cited source for all entries: patent US9029337B2
